System: Staphylococcus aureus
method-description: Bactericidal activity against methicillin-resistant Staphylococcus aureus USA300 up to 18 hrs by broth microdilution assay
Assay type: functional
condition-parameters: USA300, 18 h, read-out: MBC99.9
parameter: log10(MBC) (log10 of the value in µg/mL)

chem-smiles	study-target	meas-value
CCCCCC#Cc1ccc(-c2nc(C)c(/C(C)=N/NC(=N)N)s2)cc1	Staphylococcus aureus	0.60
C/C(=N\NC1=NCCN1)c1sc(-c2ccc(C#CC3CCCCC3)cc2)nc1C	Staphylococcus aureus	0.90
C/C(=N\NC(=N)N)c1sc(-c2ccc(C#CC(C)(C)C)cc2)nc1C	Staphylococcus aureus	0.60
C/C(=N\NC(=N)N)c1sc(-c2ccc(C#CC3CCCCC3)cc2)nc1C	Staphylococcus aureus	0.60
CCCC#Cc1ccc(-c2nc(C)c(/C(C)=N/NC(=N)N)s2)cc1	Staphylococcus aureus	0.90
CCCCCC#Cc1ccc(-c2nc(C)c(/C(C)=N/NC3=NCCN3)s2)cc1	Staphylococcus aureus	0.90
C/C(=N\NC1=NCCN1)c1sc(-c2ccc(C#CCC3CCCC3)cc2)nc1C	Staphylococcus aureus	1.51
C/C(=N\NC(=N)N)c1sc(-c2ccc(C#CCC3CCCC3)cc2)nc1C	Staphylococcus aureus	0.60
CCCCCCC#Cc1ccc(-c2nc(C)c(/C(C)=N/NC(=N)N)s2)cc1	Staphylococcus aureus	0.90
C/C(=N\NC(=N)N)c1sc(-c2ccc(C#CC3CC3)cc2)nc1C	Staphylococcus aureus	0.60
C/C(=N\NC(=N)N)c1sc(-c2ccc(C#CC(C)(C)N)cc2)nc1C	Staphylococcus aureus	1.81
C/C(=N\NC1=NCCN1)c1sc(-c2ccc(C#CC3CCCC3)cc2)nc1C	Staphylococcus aureus	1.20
C/C(=N\NC1=NCCN1)c1sc(-c2ccc(C#CC(C)(C)C)cc2)nc1C	Staphylococcus aureus	0.60
C/C(=N\NC1=NCCN1)c1sc(-c2ccc(C#Cc3ccccc3)cc2)nc1C	Staphylococcus aureus	1.20
CCCCCCC#Cc1ccc(-c2nc(C)c(/C(C)=N/NC3=NCCN3)s2)cc1	Staphylococcus aureus	1.20
C/C(=N\NC1=NCCN1)c1sc(-c2ccc(C#CC3CC3)cc2)nc1C	Staphylococcus aureus	1.20
C/C(=N\NC(=N)N)c1sc(-c2ccc(C#CC3CCCC3)cc2)nc1C	Staphylococcus aureus	0.60

###

molecules and their reported MBC
Tested on: Staphylococcus aureus
method-description: Bactericidal activity against methicillin-resistant Staphylococcus aureus NRS119 up to 18 hrs by broth microdilution assay
Type: functional
condition-parameters: NRS119, 18 h, read-out: MBC99.9
parameter: MBC

chem-smiles	parameter	meas-value
C/C(=N\NC(=N)N)c1sc(-c2ccc(C#Cc3ccccc3)cc2)nc1C	MBC	2 µg/mL
C/C(=N\NC1=NCCN1)c1sc(-c2ccc(C#CC3CCCC3)cc2)nc1C	MBC	32 µg/mL
CCCC#Cc1ccc(-c2nc(C)c(/C(C)=N/NC(=N)N)s2)cc1	MBC	1 µg/mL

###

Test system: Staphylococcus aureus
method-description: Antibacterial activity against vancomycin-resistant Staphylococcus aureus VRS10 after 20 hrs by broth microdilution assay
Type: functional
condition-parameters: VRS10, 20 h
# MIC values compiled below

chem-smiles	unit-descriptor	MIC
CCCCCCC#Cc1ccc(-c2nc(C)c(/C(C)=N/NC(=N)N)s2)cc1	µg/mL	2
C/C(=N\NC1=NCCN1)c1sc(-c2ccc(C#CC3CCCC3)cc2)nc1C	µg/mL	4
C/C(=N\NC(=N)N)c1sc(-c2ccc(C#CC3CCCCC3)cc2)nc1C	µg/mL	2

###

# MBC per entry
System: Staphylococcus aureus
method-description: Bactericidal activity against methicillin resistant Staphylococcus aureus NRS123 (USA400) up to 18 hrs by broth microdilution assay
Type: functional
condition-parameters: read-out: MBC99.9

chem-smiles	study-target	MBC [µg/mL]
C/C(=N\NC1=NCCN1)c1sc(-c2ccc(C#CC(C)(C)C)cc2)nc1C	Staphylococcus aureus	16
C/C(=N\NC1=NCCN1)c1sc(-c2ccc(C#CC3CCCC3)cc2)nc1C	Staphylococcus aureus	32
C/C(=N\NC(=N)N)c1sc(-c2ccc(C#CC3CC3)cc2)nc1C	Staphylococcus aureus	2
